Test system: Enterococcus
EXPERIMENTAL_PROTOCOL: Potency index, ratio of Vancomycin MIC to test compound MIC for antibacterial activity against Vancomycin-resistant Enterococci NR30909
Format: functional, NR 30909
The entries below come with measured Ratio values attached.
I'd appreciate a reply containing only the number, no unit.

{"COMPOUND_SMILES": "CCCCCCCCCCNC(=O)c1ccc(CN[C@@]2(C)C[C@H](O[C@H]3[C@H](Oc4c5cc6cc4Oc4ccc(cc4Cl)[C@@H](O)[C@@H](NC(=O)[C@@H](CC(C)C)NC)C(=O)N[C@@H](CC(N)=O)C(=O)N[C@H]6C(=O)N[C@H]4C(=O)N[C@H](C(=O)N[C@H](C(=O)O)c6cc(O)cc(O)c6-c6cc4ccc6O)[C@H](O)c4ccc(c(Cl)c4)O5)O[C@H](CO)[C@@H](O)[C@@H]3O)O[C@@H](C)[C@H]2O)cc1", "Ratio": 670}

Shift focus to the following entry.
**Q:** Data request, read-out Ratio, for `CCCCCCCCCCCCNC(=O)C[N+](C)(C)CCCNC(=O)c1ccc(CN[C@@]2(C)C[C@H](O[C@H]3[C@H](Oc4c5cc6cc4Oc4ccc(cc4Cl)[C@@H](O)[C@@H](NC(=O)[C@@H](CC(C)C)NC)C(=O)N[C@@H](CC(N)=O)C(=O)N[C@H]6C(=O)N[C@H]4C(=O)N[C@H](C(=O)N[C@H](C(=O)O)c6cc(O)cc(O)c6-c6cc4ccc6O)[C@H](O)c4ccc(c(Cl)c4)O5)O[C@H](CO)[C@@H](O)[C@@H]3O)O[C@@H](C)[C@H]2O)cc1`
**A:** 780
